# Tested on: STK16
# ASSAY_SETUP: concentration: 1 μM, replicates: in singlicate; n = 1;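 further: KINOMEscan kinase panel screen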
MEASUREMENT_NAME: %Inh

| MOLECULE | %Inh |
| --- | --- |
| CNc1ncnc2[nH]ncc12 [SKF-18355] | 0% |
| Cc1c(Cn2c(C)nn3c(=O)cc(N4CCOC(C)C4)nc23)cccc1C(F)(F)F (stereo not shown) [GSK2344444] | 0% |
| Cc1nnc(-c2ccc3ncc(-c4ccc(S(C)=O)cc4)n3c2)o1 (stereo not shown) | 0% |
| NS(=O)(=O)c1cccc(-c2ccc3ncc(N4CCOCC4)nc3c2)c1 [GSK1535721] | 16% |

Below are some molecules; for each one, tell me its %Inh.
1. NS(=O)(=O)CCc1cccc(Nc2nccc(-c3c(-c4cccc(NC(=O)c5c(F)cccc5F)c4)nn4ccccc34)n2)c1 [GSK336735]
2. O=c1cc(N2CCOCC2)nc2n(Cc3cccc4ccccc34)ccn12 [GSK2333389]
3. CSc1ccc(-c2cc3ncnc(SCC(=O)O)c3s2)cc1
4. CCc1ccnc(/C=C/c2n[nH]c3cc(Sc4ccccc4C(=O)NC)ccc23)c1
5. O=c1cc(N2CCOCC2)nc2n(Cc3cccc(Cl)c3Cl)c(C3CC3)nn12 [GSK2358994]
6. CCCCCc1nc2c(N)ncnc2n1CCCCC [SKF-97255]

Output:
1. 28%
2. 0%
3. 2%
4. 0%
5. 10%
6. 9%

* * *

# System: MEK6
# Construct: gene MAP2K6
# ASSAY_SETUP: concentration: 1 μM, replicates: in singlicate; n = 1
MEASUREMENT_NAME: %Inh (%)
Answers are plain numbers, in %.

| MOLECULE | %Inh [%] |
| --- | --- |
| Fc1ccc(-c2nn3c(OCC(F)(F)F)cccc3c2-c2ccncc2)cc1 | 1 |
| Fc1ccc(-c2ncn(CCCN3CCOCC3)c2-c2ccccn2)cc1 | 0 |
| Cl.Oc1cccc(Nc2ccnc3cc(-c4ccncc4)ccc23)c1 | 0 |
| O=C1Cc2cc(Nc3nc(NCc4cccc(S(=O)(=O)C(F)(F)F)c4)ncc3C(F)(F)F)ccc2N1 | 14 |
| CN(C(=O)c1ccc(-c2cc(-c3c[nH]nc3-c3ccccn3)ccn2)cc1)C1CCOCC1 | 0 |

Hey, quick one: what's %Inh for each of these?
1. NCC(NC(=O)c1cc(-c2cn[nH]c2)c(-c2ccnc3[nH]ccc23)s1)c1ccccc1.O=C(O)C(F)(F)F.O=C(O)C(F)(F)F (stereo not shown)
2. CCc1ccnc(/C=C/c2n[nH]c3cc(Sc4ccccc4C(=O)NC)ccc23)c1
3. O=C(Nc1cccc(-c2nn3ncccc3c2-c2ccnc(Nc3cccc(C(F)(F)F)c3)n2)c1)c1c(F)cccc1F
4. COc1ccc(CNC(=O)NC2CCN(c3ccnc(Nc4ccc(OC)cc4)n3)C2)cc1 (stereo not shown)

Output:
24
9
7
0

* * *

# Tested on: SIK
# ASSAY_SETUP: concentration: 1 μM, replicates: in singlicate; n = 1
MEASUREMENT_NAME: %Inh (%)
One number for each entry, in %.

Quick one: give me %Inh for each item below, same order please.
1. O=c1cc(N2CCOCC2)nc2n(Cc3cccc(F)c3)ccn12 [GSK2297430]
2. [2H]C([2H])(c1cccc(C(F)(F)F)c1C)n1ccn2c(=O)nc(N3CCOCC3)cc12 [GSK2336394]
3. O=C(c1ccc(-c2cc(-c3c[nH]nc3-c3ccccn3)ccn2)cc1)N1CCOCC1 [GW812171]
4. Cc1nnc(-c2ccc3occ(-c4ccc(C(C)O)cc4)c3c2)o1 (stereo not shown)
5. O=C(NCCNc1ccnc(Nc2ccc(F)cc2)n1)Nc1ccccc1F [GSK1379880]

Output:
1. 4
2. 0
3. 0
4. 10
5. 0

// for each compound below, give its %Inh
1. Fc1ccc(-c2ncn(CCCN3CCOCC3)c2-c2ccccn2)cc1 [SB-211742]
2. Cn1ccc2ncnc(Oc3ccc(NC(=O)Nc4ccncc4)c(Cl)c3)c21

Output:
1. 11
2. 0

* * *

# Tested on: MTOR
# ASSAY_SETUP: concentration: 1 μM, replicates: in singlicate; n = 1
MEASUREMENT_NAME: %Inh (%)
Give bare numbers, in %.

See these solved cases before continuing.
| COMPOUND | SYSTEM | READING_UNIT | %Inh |
| --- | --- | --- | --- |
| Cl.Nc1ncnc2occ(-c3ccc(NC(=O)Nc4cc(C(F)(F)F)ccc4F)cc3)c12 [SB-707548] | MTOR | % | 16 |
| c1ccc(-c2cc(-c3c[nH]nc3-c3ccccn3)ccn2)cc1 [GW576604] | MTOR | % | 10 |

Okay, next one:
Input: Provide the reported %Inh (system: MTOR) for `CSc1ccc(-c2cc3ncnc(SCC(=O)O)c3s2)cc1`
Output: 36

* * *

Would you mind telling me the reported %Inh of each entry?
# Tested on: NEK5
# ASSAY_SETUP: concentration: 1 μM, replicates: in singlicate; n = 1
One number for each entry, in %.

| MOLECULE | %Inh / % |
| --- | --- |
| O=C(NCCNc1ccnc(Nc2ccc(F)cc2)n1)Nc1ccccc1F | 0 |
| Nc1nc(-c2ccc3c(N)n[nH]c3c2)cc(N2CCCC2)n1 | 0 |
| [2H]C([2H])(c1cccc(C(F)(F)F)c1C)n1ccn2c(=O)nc(N3CCOCC3)cc12 | 4 |

Need %Inh for each of these molecules.
1. Cc1c2ccc(N(C)c3ccnc(Nc4cccc(S(N)(=O)=O)c4)n3)cc2nn1Cc1ccccc1.Cl.Cl
2. Nc1nccc(-c2c(-c3ccc(F)cc3)ncn2C2CCN(CC(F)(F)F)CC2)n1
3. O=C(c1ccc(-c2cc(-c3c[nH]nc3-c3ccccn3)ccn2)cc1)N1CCOCC1
4. O=c1cc(N2CCOCC2)nc2n(Cc3cccc4ccccc34)ccn12
5. COC(=O)Nc1nc2cc(Oc3ccc(NC(=O)Nc4cc(F)ccc4F)cc3)ccc2[nH]1.Cl

Output:
0
16
0
0
3

// each molecule listed below needs its %Inh
1. COCCNC(=O)c1ccc(-c2cc(C(=O)NC3CC3)cc(F)c2C)cc1
2. Cc1nnc(-c2ccc3occ(-c4ccc(C(C)O)cc4)c3c2)o1 (stereo not shown)
3. Cc1cccc(-c2nc(-c3ccc(S(C)(=O)=O)cc3)sc2-c2ccncc2)c1
4. Cl.Nc1ncnc2occ(-c3ccc(NC(=O)Nc4cc(C(F)(F)F)ccc4F)cc3)c12
5. NCC(NC(=O)c1cc(-c2cn[nH]c2)c(-c2ccnc3[nH]ccc23)s1)c1ccccc1.O=C(O)C(F)(F)F.O=C(O)C(F)(F)F (stereo not shown)
6. COc1ccc(S(=O)(=O)NC2CCN(c3cc(C)nc(Nc4cccc(C#N)c4)n3)CC2)cc1.O=C(O)C(F)(F)F
7. Cc1cn2c(=O)cc(N3CCOCC3)nc2n1Cc1cccc(Cl)c1Cl
8. CNc1ncnc2[nH]ncc12

Output:
[8, 0, 3, 30, 57, 2, 14, 0]

* * *

# Tested on: JNK1
# Construct: gene MAPK8
# ASSAY_SETUP: concentration: 1 μM, replicates: in singlicate; n = 1
MEASUREMENT_NAME: %Inh (%)
Give bare numbers, in %.

// solved cases for %Inh follow
| COMPOUND | %Inh (%) |
| --- | --- |
| O=c1cc(N2CCOCC2)nc2n(Cc3cccc(Cl)c3Cl)c(C3CC3)nn12 [GSK2358994] | 19 |
| Cc1cccc(-c2nc(-c3ccc(S(C)(=O)=O)cc3)sc2-c2ccncc2)c1 | 26 |
| COc1ccc(Nc2nccc(N3CCC(NC(=O)Nc4cc(C)ccc4C)C3)n2)cc1 (centres unmarked) [GSK1379741] | 24 |
| CC(=O)Nc1ccc(COc2ccc(Nc3ccnc4cc(-c5ccccn5)ccc34)cc2)cc1.Cl [GW440148] | 0 |
| O=c1cc(N2CCOCC2)nc2n(Cc3cccc4ccccc34)ccn12 [GSK2333389] | 21 |
| CSc1ccc(-c2cc3ncnc(SCC(=O)O)c3s2)cc1 | 5 |

Batch of 4 compounds: report %Inh for each.
1. N#Cc1c(N2CCOCC2)sc(-c2ccn[nH]2)c1-c1ccc(Cl)cc1
2. O=c1cc(N2CCOCC2)nc2n(Cc3cccc(F)c3)ccn12 [GSK2297430]
3. CC(C)Oc1ccc2c(-c3ccnc(Nc4ccc(N5CCN(C)CC5)cc4)n3)cnn2n1 [GW696155]
4. CC(C)(C)n1cnc2c(N)ncnc21 [SKF-97359]

Output:
40
21
100
20

# return %Inh for each item in the list
1. COc1ccc(Nc2nccc(N3CCC(NC(=O)Nc4cccc(C(C)=O)c4)C3)n2)cc1 (centres unmarked) [GSK1379731]
2. C[C@@H](Oc1cc(-n2cnc3ccc(NC(=O)NC(C)(C)C)cc32)sc1C(N)=O)c1ccccc1Cl [GSK346294]

Output:
14
0

For every listed record, write down its %Inh.
1. Cc1cn2c(=O)cc(N3CCOCC3)nc2n1Cc1cccc(Cl)c1Cl [GSK2334006]
2. Cc1c(Cn2c(C)nn3c(=O)cc(N4CCOC(C)C4)nc23)cccc1C(F)(F)F (centres unmarked) [GSK2344444]

Output:
1. 18
2. 0

Hi, could you look up %Inh for each item in my list?
1. NS(=O)(=O)c1cccc(-c2ccc3nccc(-c4cccc(S(N)(=O)=O)c4)c3c2)c1 [GW867253]
2. NCC(NC(=O)c1cc(-c2cn[nH]c2)c(-c2ccnc3[nH]ccc23)s1)c1ccccc1.O=C(O)C(F)(F)F.O=C(O)C(F)(F)F (centres unmarked) [GSK1325775]
3. CN1c2ccc(CNc3ccc(F)cc3)cc2-c2c(cnn2C)S1(=O)=O
4. Cc1nnc(-c2ccc(C)c(-c3ccc(C(=O)Nc4ccc(NS(C)(=O)=O)cc4)cc3)c2)o1 [GW702865]
5. NS(=O)(=O)CCc1cccc(Nc2nccc(-c3c(-c4cccc(NC(=O)c5c(F)cccc5F)c4)nn4ccccc34)n2)c1 [GSK336735]
6. CN(C(=O)c1ccc(-c2cc(-c3c[nH]nc3-c3ccccn3)ccn2)cc1)C1CCOCC1 [GW810083]
7. Cn1cc(-c2ccc3c(c2)CCN3C(=O)Cc2ccccc2Cl)c2c(N)ncnc21 [GSK2608885]
8. Cc1ccc(C(=O)NCC(N)=O)cc1-n1c(C)cc(OCc2ccc(F)cc2F)c(Br)c1=O

Output:
[30, 40, 0, 0, 36, 42, 19, 0]

Value sought for every listed compound: %Inh.
1. COc1cc2c(cc1OCCN1CCN(C)CC1)ncc1c3ccc(C#N)cc3[nH]c21
2. COC(=O)Nc1nc2cc(Oc3ccc(NC(=O)Nc4cc(F)ccc4F)cc3)ccc2[nH]1.Cl [GW701424]
3. Fc1ccc(-c2nn3c(OCC(F)(F)F)cccc3c2-c2ccncc2)cc1 [GW514784]
4. NS(=O)(=O)c1cccc(-c2ccc3ncc(N4CCOCC4)nc3c2)c1 [GSK1535721]
5. O=c1cc(N2CCOCC2)nc2n(Cc3cccc(C(F)(F)F)c3)ccn12 [GSK2297543]

Output:
1: 19; 2: 0; 3: 97.6; 4: 3; 5: 0

Take each entry in turn and give its %Inh.
1. COc1ccc(COc2cc(-n3cnc4ccccc43)sc2C(N)=O)cc1 [GSK1024304]
2. CCn1cnc2c(N)ncnc21 [GW345098]

Output:
1: 18; 2: 16

Reference source: paper PMC5540273
